tested on: BT-549; assay: NCI tumour cell line growth inhibition, 48 h
The source made the active and inactive calls. Rule as the data show it: active = GI50 up to about 1.1 µM and inactive = higher.
Measured GI50, listed per entry for reference.

CC[C@]12CCCN3CCc4c(n(c5ccccc45)C(=O)C1)[C@@H]32 :: 24.7 µM (inactive)

Which GI50 value is on record for `COc1ccc2c(c1)CCN=C2Cc1cc(OC)c(OC)cc1CCCl` ? > 100 µM (inactive)

Also `c1ccc(N/N=N/c2ccc(-c3nc4ccccc4[nH]3)cc2)nc1` ? 37.5 µM (inactive)

Try the compound `N#CCCN(CCC#N)c1ccc(/C=C2\SC(=S)NC2=O)cc1Br` 37.3 µM (inactive)

Same again, this time with N=C(N)C(/N=N\c1ccccc1)C(=N)N (centres undefined) 39.9 µM (inactive)

Input `CCC(=O)Nc1ccc(NCC(=O)Nc2ccc(Cl)cc2)cc1` 21.9 µM (inactive)

Next up: `COC(=O)c1ccccc1/C=C1\Cc2c(C)c3c(c(C)c2C1=O)CCC3` > 100 µM (inactive)

Here is the next compound: O=c1cc(CNC2CC3CCC2C3)[nH]c(=O)[nH]1 (centres undefined) > 100 µM (inactive)

Please give the result for `Cn1c(-c2ccc(/N=N/Nc3ccc(-c4n[nH]c(=S)n4C)cc3)cc2)n[nH]c1=S` too. 3.9 µM (inactive)

src = ChEMBL document CHEMBL1201862
